- assay.remarks: Metabolic stability in human microsomes at 4.8 uM after 30 mins
- Format: ADME, Microsome
- condition.summary: read-out: Stability
readout.label: remaining at 0.5 h, 4.8 µM

So what's the measured remaining at 0.5 h, 4.8 µM for this one? CN(C)c1cc(CNCC(C)(C)C)c(O)c2c1C[C@H]1C[C@H]3[C@H](N(C)C)C(O)=C(C(N)=O)C(=O)[C@@]3(O)C(O)=C1C2=O
> 90%

====

- assay.remarks: AUC(0 to 24 hrs) in human at 100 mg, iv
- Assay type: ADME
- Set-up: dose 100 mg, time < 24 hr, route intravenous
- condition.summary: in vivo
readout.label: AUC (ng·h/mL)
State just the number; it will be interpreted in ng·h/mL.

So what's the measured AUC for this one? CN(C)c1cc(CNCC(C)(C)C)c(O)c2c1C[C@H]1C[C@H]3[C@H](N(C)C)C(O)=C(C(N)=O)C(=O)[C@@]3(O)C(O)=C1C2=O.Cl
8800

====

- assay.remarks: Tmax in human at 300 mg, po
- Assay type: ADME
- condition.summary: in vivo
readout.label: Tmax (h)
State just the number; it will be interpreted in h.

So what's the measured Tmax for this one? CN(C)c1cc(CNCC(C)(C)C)c(O)c2c1C[C@H]1C[C@H]3[C@H](N(C)C)C(O)=C(C(N)=O)C(=O)[C@@]3(O)C(O)=C1C2=O.Cc1ccc(S(=O)(=O)O)cc1 [OMADACYCLINE TOSYLATE]
3

====

- assay.remarks: Terminal half life in human at 50 mg, iv q12h
- Assay type: ADME, organism-based
- condition.summary: in vivo, read-out: beta t1/2
readout.label: half-life

So what's the measured half-life for this one? CN(C)c1cc(NC(=O)CNC(C)(C)C)c(O)c2c1C[C@H]1C[C@H]3[C@H](N(C)C)C(O)=C(C(N)=O)C(=O)[C@@]3(O)C(O)=C1C2=O [TIGECYCLINE]
37 to 66 h

====

- assay.remarks: Cmax in human at 100 mg, po q12h
- Assay type: ADME, organism-based
- Design: dose 100 mg, route oral
- condition.summary: in vivo
readout.label: Cmax (ng/mL)
State just the number; it will be interpreted in ng/mL.

So what's the measured Cmax for this one? CN(C)[C@@H]1C(O)=C(C(N)=O)C(=O)[C@@]2(O)C(O)=C3C(=O)c4c(O)c(NC(=O)CN5CCCC5)cc(F)c4C[C@H]3C[C@@H]12
160

====

- assay.remarks: Protein binding in human plasma
- Format: ADME, cell-free
- condition.summary: read-out: PPB
Readings of fraction unbound for the listed compounds

# smiles.string, measured.result
rows = [
    ("CN(C)c1cc(NC(=O)CNC(C)(C)C)c(O)c2c1C[C@H]1C[C@H]3[C@H](N(C)C)C(O)=C(C(N)=O)C(=O)[C@@]3(O)C(O)=C1C2=O", "0.13 to 0.31"),
]

// switching to the query compound
So what's the measured fraction unbound for this one? CN(C)[C@@H]1C(O)=C(C(N)=O)C(=O)[C@@]2(O)C(O)=C3C(=O)c4c(O)c(NC(=O)CN5CCCC5)cc(F)c4C[C@H]3C[C@@H]12
0.13 to 0.21

====

- assay.remarks: Cmax in human at 50 mg, iv q12h
- Assay type: ADME, organism-based
- Set-up: dose 50 mg, route intravenous
- condition.summary: in vivo
readout.label: Cmax (ng/mL)
State just the number; it will be interpreted in ng/mL.

So what's the measured Cmax for this one? CN(C)c1cc(NC(=O)CNC(C)(C)C)c(O)c2c1C[C@H]1C[C@H]3[C@H](N(C)C)C(O)=C(C(N)=O)C(=O)[C@@]3(O)C(O)=C1C2=O
870
